experiment: Stability test in buffer (pH 7.4); type: physicochemical; conditions: phosphate buffer/acetonitrile 7:3; 10 minutes at 37°C, 100 mM potassium phosphate buffer (pH 7.4) and acetonitrile 7:3 (v/v), LC/MS; read-out: Buf. remaining rate (%/10min)
remaining at 10 min for assorted compounds
Quick reminder: number only, in %, skip the unit.

Guide cases for remaining at 10 min, answers given:
CN(C)C(=O)c1cc(CCCC(=O)Oc2ccc(C(=O)OCCN3CCCC3=O)cc2)ccc1NC(=O)c1ccccc1-c1ccc(C(F)(F)F)cc1 [Compound 1-91]
100
CN(C)C(=O)c1cc(CCCC(=O)Oc2ccc(C(=O)OCC(=O)OCc3ccccc3)cc2)ccc1NC(=O)c1ccccc1-c1ccc(C(F)(F)F)cc1 [Compound 1-78]
97
COC(=O)c1ccc(OC(=O)CCCc2ccc(NC(=O)c3ccc(C)nc3-c3ccc(C(F)(F)F)cc3)c(C(=O)N(C)C)c2)cc1 [Compound 1-13]
95
COC(=O)c1ccc(OC(=O)CCCc2ccc(NC(=O)c3ccccc3-c3ccc(C(F)(F)F)cc3)c(C(=O)N(C)C)c2)cc1C(F)(F)F [Compound 1-21]
104
COc1cccc(COC(=O)c2ccc(OC(=O)CCCc3ccc(NC(=O)c4ccccc4-c4ccc(C(F)(F)F)cc4)c(C(=O)N(C)C)c3)cc2)c1 [Compound 1-97]
100

In the following, a different compound is considered.
Query block: Form field: reported remaining at 10 min of CN(C)C(=O)c1cc(CCCC(=O)Oc2ccc(C#N)cc2)ccc1NC(=O)c1ccccc1-c1ccc(C(F)(F)F)cc1 [Compound 1-23]
Result block: 99

* * *

assay: Stability test in buffer (pH 7.4); type: physicochemical; settings: phosphate buffer/acetonitrile 7:3; 60 minutes at 37°C, 100 mM potassium phosphate buffer (pH 7.4) and acetonitrile 7:3 (v/v), LC/MS; read-out: Buf. remaining rate (%/60min)
Property Name: remaining at 1 h (%)
API: value field is a number in %; no unit string.

Some compounds with known remaining at 1 h results, for comparison:
CN(C)C(=O)c1cc(CCCC(=O)Oc2ccc(C(=O)OCc3ccc(Cl)cc3)cc2)ccc1NC(=O)c1ccccc1-c1ccc(C(F)(F)F)cc1 [Compound 1-79]
95
CCOC(=O)c1cc(Cl)c(OC(=O)CCCc2ccc(NC(=O)c3ccc(C)nc3-c3ccc(C(F)(F)F)cc3)c(C(=O)N(C)C)c2)c(OC)c1 [Compound 1-48]
97
Cc1cccc(COC(=O)c2ccc(OC(=O)CCCc3ccc(NC(=O)c4ccc(C)nc4-c4ccc(C(F)(F)F)cc4)c(C(=O)N(C)C)c3)cc2)n1 [Compound 1-100]
102
COC(=O)c1ccc(OC(=O)CCCc2ccc(NC(=O)c3ccccc3-c3ccc(C(F)(F)F)cc3)c(C(=O)N(C)C)c2)cc1Cl [Compound 1-18]
98
COC(=O)c1ccc(OC(=O)CCCc2ccc(NC(=O)c3ccc(C)nc3-c3ccc(C(F)(F)F)cc3)c(C(=O)N(C)C)c2)cc1 [Compound 1-13]
97

Proceeding to the next compound to report its remaining at 1 h.
Query block: Fill in: remaining at 1 h of COC(=O)c1ccc(OC(=O)CCCc2ccc(NC(=O)c3ccccc3-c3ccc(C(F)(F)F)cc3)c(C(=O)N(C)C)c2)c(OC)c1 [Compound 1-12] is ___
Result block: 103

* * *

test: Metabolic stability test in plasma; type: in vitro ADME, human; conditions: unchanged form after 60 minutes at 37°C in human plasma, LC/MS; read-out: Remaining rate in human plasma (%/60min)
The following compounds are listed with their measured remaining at 1 h values.
Unit % implied. Number only.

Before answering, review these 2 worked examples.
CCc1cc(C(=O)OC)cc(C(=O)OC)c1OC(=O)CCCc1ccc(NC(=O)c2ccc(C)nc2-c2ccc(C(F)(F)F)cc2)c(C(=O)N(C)C)c1 [Compound 1-51]
0
COC(=O)c1cc(C)c(OC(=O)CCCc2ccc(NC(=O)c3ccc(C)nc3-c3ccc(C(F)(F)F)cc3)c(C(=O)N(C)C)c2)c(F)c1 [Compound 1-41]
0

Query block: Query (compound): CC(C)OC(=O)c1ccc(OC(=O)CCCc2ccc(NC(=O)c3ccncc3-c3ccc(C(F)(F)F)cc3)c(C(=O)N(C)C)c2)cc1 [Compound 1-29] ; field requested: remaining at 1 h
Result block: 0
